# study target: HDAC8 (Homo sapiens, UniProt Q9BY41)
# Sequence (Q9BY41 whole entry): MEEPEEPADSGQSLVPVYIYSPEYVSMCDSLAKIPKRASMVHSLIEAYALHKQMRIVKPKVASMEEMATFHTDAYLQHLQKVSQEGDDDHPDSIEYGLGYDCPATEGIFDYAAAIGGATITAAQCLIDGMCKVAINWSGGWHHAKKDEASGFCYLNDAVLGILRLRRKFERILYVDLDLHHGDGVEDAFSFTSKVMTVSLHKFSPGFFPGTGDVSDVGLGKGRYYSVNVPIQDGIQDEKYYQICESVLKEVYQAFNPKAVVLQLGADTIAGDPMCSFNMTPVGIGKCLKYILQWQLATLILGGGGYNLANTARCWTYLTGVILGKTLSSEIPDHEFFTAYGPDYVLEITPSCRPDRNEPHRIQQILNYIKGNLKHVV
# protocol description: HDAC biochemical assay of P5-P12 (Table P1)
# Set-up: The recombinant, full-length HDAC protein (BPS Biosciences) was incubated; purchased BPS Biosciences
assay readout: IC50
Remember to put the unit after the number in your answer.

Problem: Which value of IC50 has been reported for CCCCCCCC(=O)SCC/C=C/[C@@H]1CC(=O)NCc2nc(cs2)C2=N[C@@](C)(CS2)C(=O)N[C@@H](C(C)C)C(=O)O1 [Largazole, largazole, reference compound] in the records?
Result: 1070 nM

----------
# study target: HDAC1 (Homo sapiens, UniProt Q13547)
# Sequence (Q13547 whole entry): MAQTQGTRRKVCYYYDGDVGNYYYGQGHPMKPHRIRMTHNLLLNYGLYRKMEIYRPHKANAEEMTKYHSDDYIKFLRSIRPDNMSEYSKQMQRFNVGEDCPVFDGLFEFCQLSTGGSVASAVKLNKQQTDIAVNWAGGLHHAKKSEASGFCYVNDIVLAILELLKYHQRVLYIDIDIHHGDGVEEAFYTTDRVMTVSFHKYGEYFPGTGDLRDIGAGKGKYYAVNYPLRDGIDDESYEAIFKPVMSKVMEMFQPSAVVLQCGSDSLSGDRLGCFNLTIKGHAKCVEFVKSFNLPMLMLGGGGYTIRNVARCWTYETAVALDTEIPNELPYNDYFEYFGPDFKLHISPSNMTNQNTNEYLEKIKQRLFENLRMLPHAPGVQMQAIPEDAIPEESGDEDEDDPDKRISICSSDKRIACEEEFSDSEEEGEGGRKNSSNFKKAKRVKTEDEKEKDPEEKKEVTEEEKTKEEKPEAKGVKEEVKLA
# protocol description: HDAC biochemical assay of P5-P12 (Table P1)
# Set-up: The recombinant, full-length HDAC protein (BPS Biosciences) was incubated; purchased BPS Biosciences
# condition set: Table P1
assay readout: pIC50
Please report pIC50 as the negative decimal logarithm of the molar concentration, giving only the number.

compound: CCCCCCCC(=O)SCCC=CC1CC(=O)NCc2cc(ccn2)C2=NC(C)(CS2)C(=O)NC(C(C)C)C(=O)O1 (stereo not shown) [Compound P7, Depsipeptide Pyridyl “OUT”]
pIC50: 6.47
//
compound: CCCCCCCC(=O)SCC/C=C/[C@@H]1CC(=O)NCc2cc(ccn2)C2=N[C@@](C)(CS2)C(=O)N[C@@H](C(C)C)C(=O)N1 [Compound P11, Peptide Isostere Pyridyl “OUT”]
pIC50: 6.09
//
compound: CCCCCCCC(=O)SCCC=CC1CC(=O)NCc2cccc(n2)C2=NC(C)(CS2)C(=O)NC(C(C)C)C(=O)O1 (stereo not shown) [Compound P5, Depsipeptide Pyridyl “IN”]
pIC50: 6.69
//
compound: CC(C)[C@@H]1NC(=O)[C@]2(C)CSC(=N2)c2cccc(n2)CNC(=O)C[C@@H](/C=C/CCS)NC1=O [Compound P10, Peptide Isostere Pyridyl “IN” Thiol]
pIC50: 7.38
//
compound: CCCCCCCC(=O)SCCC=CC1CC(=O)NCc2cccc(n2)C2=NC(C)(CS2)C(=O)NC(C(C)C)C(=O)N1 (stereo not shown) [Compound P9, Peptide Isostere Pyridyl “IN”]
pIC50: 6.47

Problem: Which value of pIC50 has been reported for CC(C)[C@@H]1NC(=O)[C@]2(C)CSC(=N2)c2ccnc(c2)CNC(=O)C[C@@H](/C=C/CCS)NC1=O [Compound P12, Peptide Isostere Pyridyl “OUT” Thiol] in the records?
Result: 7.88

Problem: Which value of pIC50 has been reported for CC(C)[C@@H]1NC(=O)[C@]2(C)CSC(=N2)c2ccnc(c2)CNC(=O)C[C@@H](/C=C/CCS)OC1=O [Compound P8, Depsipeptide Pyridyl “OUT” Thiol] in the records?
Result: 8.66

----------
In this section, each of the compounds is paired with its reported pIC50.
# study target: HDAC3/NCor2 (Homo sapiens)
# Construct: recombinant, full-length HDAC protein; purchased BPS Biosciences
# Sequence (O15379 whole entry): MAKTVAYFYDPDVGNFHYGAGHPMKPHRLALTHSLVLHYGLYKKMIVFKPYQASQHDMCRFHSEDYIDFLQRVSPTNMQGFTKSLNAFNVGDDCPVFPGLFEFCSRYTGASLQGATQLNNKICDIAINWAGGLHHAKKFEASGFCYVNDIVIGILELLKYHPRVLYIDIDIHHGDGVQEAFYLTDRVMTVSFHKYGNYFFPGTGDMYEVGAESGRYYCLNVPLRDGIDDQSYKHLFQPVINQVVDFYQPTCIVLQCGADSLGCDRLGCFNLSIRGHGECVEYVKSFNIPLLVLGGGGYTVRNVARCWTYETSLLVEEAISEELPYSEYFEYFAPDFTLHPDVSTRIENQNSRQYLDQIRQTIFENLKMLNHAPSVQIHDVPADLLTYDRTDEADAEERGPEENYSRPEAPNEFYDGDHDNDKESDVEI
# Sequence (Q9Y618 395-489 partner limits assumed): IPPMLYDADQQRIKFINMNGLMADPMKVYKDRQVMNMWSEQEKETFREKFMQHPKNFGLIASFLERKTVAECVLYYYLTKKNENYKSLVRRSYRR
# protocol description: HDAC biochemical assay (Example 16)
Please report pIC50 as the negative decimal logarithm of the molar concentration, giving only the number.

compound: CC(C)C1NC(=O)C2(C)COC(=N2)c2coc(n2)CNC(=O)CC(C=CCCSSCCC=CC2CC(=O)NCc3nc(co3)C3=NC(C)(CO3)C(=O)NC(C(C)C)C(=O)O2)OC1=O (stereo not drawn) [Oxazoline-oxazole (39b), Disulfide Dimer 39b]
assay readout: pIC50
experimental result: 8.82

compound: CC(C)[C@@H]1NC(=O)[C@]2(C)CSC(=N2)c2csc(n2)CNC(=O)C[C@@H](/C=C/CCCC(=O)Nc2ccccc2N)OC1=O [Benzamide (12b)]
assay readout: pIC50
experimental result: 4.85

Would you kindly look at the next entry?
Problem: API: value(readout=pIC50, system=HDAC3/NCor2 (Homo sapiens)) for record CC(C)[C@@H]1NC(=O)[C@]2(C)CSC(=N2)c2cccc(n2)CNC(=O)C[C@@H](/C=C/CCS)OC1=O [Thiazole-pyridine substitution (29b)]
Result: 8.96
